# Organism: Rattus norvegicus
# runDescription: Concentration required to elicit 50% of the maximal contraction of rat stomach strip
# Format: functional
This section presents compounds with their documented log10(A50) values.
Remember, log10 of A50, in µM.

Query C=CCCSCC1C2CCC(O2)C1C/C=C\CCCC(=O)O (stereo not given) yields log10(A50) of 1.51

Query CC/C=C\CCSCC1C2CCC(O2)C1C/C=C\CCCC(=O)O (stereo not given) yields log10(A50) of -0.70

Query CCCCCCSC[C@H]1C2CC[C@@H](O2)[C@H]1C/C=C\CCCC(=O)O (single isomer, unassigned; (-)) yields log10(A50) of 1.40

Query O=C(O)CCC/C=C\CC1C2CCC(O2)C1CSCCOc1ccccc1 (stereo not given) yields log10(A50) of -1.00

Query O=C(O)CCC/C=C\CC1C2CCC(O2)C1CSCCc1ccccc1 (stereo not given) yields log10(A50) of 1.36

Query CCC/C=C(\C)CSCC1C2CCC(O2)C1CC=CCCCC(=O)O (stereo not given) yields log10(A50) of 1.66

Query CCCCCCSC[C@H]1C2CCC(O2)[C@H]1C/C=C\CCCC(=O)O (stereo not given in full) yields log10(A50) of 1.59

Query CCC/C=C\CSCC1C2CCC(O2)C1C/C=C\CCCC(=O)O (stereo not given) yields log10(A50) of 0.63

Query CC/C=C/CCSCC1C2CCC(O2)C1CC=CCCCC(=O)O (stereo not given) yields log10(A50) of -1.40

Query CCCCCC[S+]([O-])CC1C2CCC(O2)C1C/C=C\CCCC(=O)O (stereo not given) yields log10(A50) of 1.32

Query CCCCCCS(=O)(=O)CC1C2CCC(O2)C1C/C=C\CCCC(=O)O (stereo not given) yields log10(A50) of 0.90

Query O=C(O)CCC/C=C\CC1C2CCC(O2)C1CSCCCc1ccccc1 (stereo not given) yields log10(A50) of -0.70

Query O=C(O)CCC/C=C\CC1C2CCC(O2)C1CSc1ccccc1 (stereo not given) yields log10(A50) of -0.10

Query O=C(O)CCCC=CCC1C2CCC(O2)C1CSC/C=C/c1ccccc1 (stereo not given) yields log10(A50) of -0.15

Query CCC/C=C/CSCC1C2CCC(O2)C1CC=CCCCC(=O)O (stereo not given) yields log10(A50) of 1.41

====

# measuredOn: Thromboxane A2 receptor (Homo sapiens, UniProt P21731)
# Sequence (P21731 whole entry): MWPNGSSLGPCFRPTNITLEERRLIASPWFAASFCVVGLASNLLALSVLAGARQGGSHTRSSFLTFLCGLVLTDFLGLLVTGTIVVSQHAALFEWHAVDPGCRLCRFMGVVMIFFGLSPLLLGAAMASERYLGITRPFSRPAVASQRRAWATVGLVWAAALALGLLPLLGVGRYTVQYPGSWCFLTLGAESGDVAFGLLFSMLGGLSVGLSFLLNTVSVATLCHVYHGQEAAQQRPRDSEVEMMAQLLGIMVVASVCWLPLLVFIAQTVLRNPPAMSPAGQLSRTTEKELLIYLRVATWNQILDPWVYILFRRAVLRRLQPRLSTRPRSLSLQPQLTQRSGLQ
# runDescription: Compound was evaluated for inhibition of specific binding of HSQ (5,6-di-3H-SQ 29,548) in washed platelets
# Set-up: species or system Cavia porcellus
measurementLabel: pKd
Scale: negative log10 of molar concentration, which is what pKd denotes.

>>> readoutvalue("CC/C=C\\CCSCC1C2CCC(O2)C1C/C=C\\CCCC(=O)O (configuration not stated)")
9.40

Below: the item to evaluate.
Query CCCCCCSC[C@H]1C2CC[C@@H](O2)[C@H]1C/C=C\CCCC(=O)O (single isomer, unassigned; (-)) yields pKd of 8.80

====

# Species: Cavia porcellus
# runDescription: Duration of action of compound for Inhibition of arachidonic acid-induced response in guinea pigs
# Format: functional
measurementLabel: Duration

Before answering, review these 2 worked examples.
>>> readoutvalue("CCC/C=C/CSCC1C2CCC(O2)C1CC=CCCCC(=O)O (centres undefined)")
"<60 min"
>>> readoutvalue("CCC/C=C\\CSCC1C2CCC(O2)C1C/C=C\\CCCC(=O)O (centres undefined)")
"<60 min"

Query CCCCCCSC[C@H]1C2CC[C@@H](O2)[C@H]1C/C=C\CCCC(=O)O (single isomer, unassigned; (-)) yields Duration of <60 min

Query CC/C=C\CCSCC1C2CCC(O2)C1C/C=C\CCCC(=O)O (centres undefined) yields Duration of >60 min

====

# measuredOn: Thromboxane A2 receptor (Homo sapiens)
# runDescription: Inhibition of specific binding of HSQ(5,6-di-3H-SQ 29,548) in washed platelets
# Set-up: species or system Cavia porcellus
This section presents molecules with their documented Kd values.
Give the quantity in nM, number only.

Before answering, review these 2 worked examples.
>>> readoutvalue("C=CCCSCC1C2CCC(O2)C1C/C=C\\CCCC(=O)O (stereo not drawn)")
49
>>> readoutvalue("CCCSCC1C2CCC(O2)C1C/C=C\\CCCC(=O)O (stereo not drawn)")
97

Query C=CCSCC1C2CCC(O2)C1C/C=C\CCCC(=O)O (stereo not drawn) yields Kd of 76
